tested on: UACC-62 melanoma; test: NCI-60 one-dose screen, 48 h; conditions: 10 µM unless noted
This is part of a sample that, as a whole, favours compounds with a hit. Of some 83,000 tested, about 20% had one in any assay. Active and inactive are the calls of the source. Rule for the calls: active = growth percent below 10; inactive = the rest.
The reply should be one of these categories: yes (1) (active), no (0) (inactive)

Study these solved cases before continuing.
Hey, what did the test say about `CCOC(=O)C(C(=O)OCC)C1CCCCC1` ?
no (0)

Hey, what did the test say about `Cn1c(=O)c2[nH]c(=S)n(Cc3ccccc3)c2n(C)c1=O` ?
no (0)

Hey, what did the test say about CCCCCCCCCCCCC1CCCC(C)C1 (stereo not given) ?
no (0)

Hey, what did the test say about `O=C1NC(=O)/C(=C\c2ccco2)S1` ?
no (0)

Now for a further compound.
Hey, what did the test say about CC(C)CC1NC(=O)C(CCCN)NC(=O)C(C(C)C)NC(=O)C2CCCN2C(=O)C(Cc2ccccc2)NC(=O)C(CC(C)C)NC(=O)C(CCCN)NC(=O)C(C(C)C)NC(=O)C2CCCN2C(=O)C(Cc2ccccc2)NC1=O (stereo not given) ?
yes (1)

###

tested on: NCI/ADR-RES ovarian; test: NCI-60 one-dose screen, 48 h (100 = growth as untreated, 0 = no growth, -100 = all killed); conditions: 10 µM unless noted
About 83,000 compounds went through this panel and 20% of them were active in at least one assay; those are over-represented in the sample as a whole.
property_label: growth (%)
Numbers only, in %.

Look over these answered cases.
Give its growth value. Item: `O=C(O)C1CCN(S(=O)(=O)c2ccc(-c3ccccc3)cc2)CC1`
117

Give its growth value. Item: CCSCC1CC(O)(c2ccccc2)C(c2ccccc2)C(c2ccc(Cl)cc2)O1 (centres undefined)
17.1

List growth for every entry below, keeping the order given.
1. NC(=O)c1cc(Br)cc(Br)c1NS(=O)(=O)c1ccccc1
2. C(#Cc1ccccc1C#Cc1ccccn1)c1ccc(OCCCCCCOc2ccc(C#Cc3ccccc3C#Cc3ccccn3)cc2)cc1
3. Clc1ccc2nc(CI)c(CI)nc2c1
4. O=C(c1ccc(N2CCOCC2)cc1[N+](=O)[O-])N1CCOCC1
5. Nc1ccn(C2O[C@H](CO)[C@@H](O)[C@@H]2O)c(=O)n1 (some centres undefined)

1: 103; 2: 40; 3: 100; 4: 108; 5: 34.6

List growth for every entry below, keeping the order given.
1. O=C(Nc1ccccc1)c1cc(-n2cnc([N+](=O)[O-])c2)cc(-n2cnc([N+](=O)[O-])c2)n1
2. COc1cccc2c1C(=O)c1c(O)c3c(c(O)c1C2=O)C[C@@](O)(C(C)=O)C[C@@H]3O[C@H]1C[C@H](N)[C@H](O)[C@H](C)O1

111
11.8

###

test system: UACC-257 melanoma; experiment: NCI-60 one-dose screen, 48 h (100 = growth as untreated, 0 = no growth, -100 = all killed); conditions: 10 µM unless noted
The panel holds about 83,000 compounds, 20% with a hit somewhere; the sample as a whole holds those more often.
Use 80% as the dividing line for growth, with the line itself on the true side and lower values as false.

Study these solved cases before continuing.
Item `COC(=O)c1cc2c(/C=C3/NC(=S)NC3=O)coc2n1C` with growth of 80% or above?
true

Item C/C(=C\CCc1ccoc1)CC/C=C(\C)CCCC1COC(=O)C1 (centres undefined) with growth of 80% or above?
true

Item `C/C(=C\CCc1ccoc1)CC/C=C(\C)CCCN1CCSCC1` with growth of 80% or above?
false

Item `Nc1nc(Nc2ccccc2SSc2ccccc2Nc2nc(N)nc(-c3cccc(Cl)c3)n2)nc(-c2cccc(Cl)c2)n1` with growth of 80% or above?
true

Item `CCOc1cc(/C=C/C(=O)C(C(=O)/C=C/c2ccc(OC(=O)CNc3nnc(C)s3)c(OCC)c2)C(=O)CNc2nnc(C)s2)ccc1OC(=O)CNc1nnc(C)s1` with growth of 80% or above?
false

---
Item `O=C1C(=O)c2c(nc3ccc(Cl)cn23)-c2ccccc21` with growth of 80% or above?
false

Item `Nc1ccc(Oc2c(F)c(F)c(Oc3ccc(N)cc3)c(F)c2F)cc1` with growth of 80% or above?
false

Item `CCOC(=O)c1sc(NC(=O)COc2cccc(/C=C3\CCc4cc(OC)ccc4C3=O)c2)nc1C` with growth of 80% or above?
true
